targetOfAssay: U1A E19S:Y13Q (UniProt P09012 10-89, Y13Q;E19S)
Sequence (P09012 10-89 Y13Q/E19S): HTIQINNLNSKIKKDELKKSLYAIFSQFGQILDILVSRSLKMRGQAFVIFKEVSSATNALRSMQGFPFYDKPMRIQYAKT
testMethodNotes: fluorescence polarization
Reported Kd values for a set of binders
Enter your answer as a number in µM; do not include the unit.

Give recorded Kd. GGCAGAUCUGAGCCUGGGAGCUCUCUGCC (structured_RNA) [TAR RNA] 10.3

Identify the reported Kd for the following entry. AGCUUAUCCAUUGCACCGGAUAAGCU (structured_RNA) [U1hpII RNA] 63.6
